Values from ChEMBL document CHEMBL1137472

EXPERIMENTAL TARGET: Protease (Human immunodeficiency virus 1) (UniProt Q9YQ12)
Sequence (Q9YQ12 as listed by the source): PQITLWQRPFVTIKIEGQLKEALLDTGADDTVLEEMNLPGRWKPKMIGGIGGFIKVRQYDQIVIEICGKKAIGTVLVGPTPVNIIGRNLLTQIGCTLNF
PROCEDURE SUMMARY: Inhibition of HIV1 recombinant protease at 10 uM
inhibition values for the compounds below.
QUANTITY KIND: inhibition

• N=[S+]([O-])(C(Cc1ccccc1)C(=O)N[C@H]1c2ccccc2C[C@H]1O)C(Cc1ccccc1)C(=O)N[C@H]1c2ccccc2C[C@H]1O (some centres undefined) = 87%
• O=C(N[C@H]1c2ccccc2C[C@H]1O)C(CSCC(Cc1ccccc1)C(=O)N[C@H]1c2ccccc2C[C@H]1O)Cc1ccccc1 (some centres undefined) = 15%
• O=C(N[C@H]1c2ccccc2C[C@H]1O)C(Cc1ccccc1)S(=O)(=O)C(Cc1ccccc1)C(=O)N[C@H]1c2ccccc2C[C@H]1O (some centres undefined) = 30%
• O=C(N[C@H]1c2ccccc2C[C@H]1O)C(Cc1ccccc1)C[S+]([O-])CC(Cc1ccccc1)C(=O)N[C@H]1c2ccccc2C[C@H]1O (some centres undefined) = 75%
